Assay: NCI Yeast Anticancer Drug Screen. Data for the mec2-1 strain (AID 157)
Details: S. cerevisiae mec2-1 strain, at 50.0 µM, hits give high values
Description: Growth inhibition of yeast strains with defined genetic alterations is measured as a screen for potential anti-cancer activity. Selected strains with alterations in DNA damage repair or cell cycle control were exposed to compounds and growth inhibition was measured relative to vehicle treated controls. The strain used in this assay is mec2-1
The panel holds about 79,000 compounds, 15% with a hit somewhere; the sample as a whole holds those more often.
Cut-off 20% on growth inhibition, inclusive. At or above means label 1; below means label 0.

[[record]]
compound = "CC(C)c1ccc2c(c1)CCC1C(C)(C(=O)O)CCCC21C (centres undefined)"
category = "label 1"

[[record]]
compound = "O=C1Nc2c(ccc(Cl)c2I)C1=O"
category = "label 1"

[[record]]
compound = "Cc1ccc(C(C)(C)c2ccc(C(=O)O)cc2)cc1"
category = "label 0"

[[record]]
compound = "CCOC(=O)C1(C#N)C(c2ccccc2)CC(O)(c2ccc([N+](=O)[O-])cc2)C(C(=O)c2ccc([N+](=O)[O-])cc2)C1c1ccccc1 (centres undefined)"
category = "label 0"

[[record]]
compound = "CCc1cccc(C)c1NC(=O)C(=O)CC(=O)c1ccccc1Cl"
category = "label 1"

[[record]]
compound = "O=C1NC(c2ccccc2)(c2ccccc2)C(=O)N1SC(Cl)(Cl)Cl"
category = "label 1"

[[record]]
compound = "COc1c(O)cc2c(c1O)C(=O)C1=C(CCCC1)C2=O"
category = "label 1"

[[record]]
compound = "O=[N+]([O-])c1ccc(/C=N/O)s1"
category = "label 1"

[[record]]
compound = "O[C@H]1c2cccn2-c2ccccc2S[C@H]1c1ccccc1"
category = "label 1"


Measured values drawn from PubChem BioAssay (NCI) for this set.
